# ASSAY REMARKS: Cytotoxicity against African green monkey Vero cells assessed as reduction in cell viability measured after 3 days by MTT assay
# Type: toxicity, cell-based
# ASSAY CONTEXT: chlorocebus sabaeus, time 3 day
READOUT LABEL: CC50 at 72 h (µM)

• COc1cc(C2C3=C(Nc4[nH]c(=O)[nH]c(=O)c42)c2ccccc2C3=O)ccc1O (stereo not drawn) = 6.16
• COc1cc(-c2c3c(nc4[nH]c(=O)[nH]c(=O)c24)-c2ccccc2C3=O)cc(OC)c1OC = 2.02
• COc1cc(C2C3=C(Nc4[nH]c(=O)[nH]c(=O)c42)c2ccccc2C3=O)cc(OC)c1O (stereo not drawn) = 6.08

---

# ASSAY REMARKS: Selectivity index, ratio of CC50 for cytotoxicity against African green monkey Vero cells to IC50 for antiparasitic activity against Toxoplasma gondii RH tachyzoites infected in African monkey Vero cells
# Type: toxicity, cell-based
# ASSAY CONTEXT: read-out: Ratio CC50/IC50
// values below are reported selectivity ratio
READOUT LABEL: selectivity ratio

- COc1ccc(C2C3=C(Nc4[nH]c(=O)[nH]c(=O)c42)c2ccccc2C3=O)cc1F (configuration not stated): 0.74
- COc1cc(C2C3=C(Nc4[nH]c(=O)[nH]c(=O)c42)c2ccccc2C3=O)cc(I)c1OC (configuration not stated): 0.89
- COc1ccc(C2C3=C(Nc4[nH]c(=O)[nH]c(=O)c42)c2ccccc2C3=O)cc1OC (configuration not stated): 1.1
- O=C1C2=C(Nc3[nH]c(=O)[nH]c(=O)c3C2c2ccc(O)cc2)c2ccccc21 (configuration not stated): 0.2
- COc1ccc(C2C3=C(Nc4[nH]c(=O)[nH]c(=O)c42)c2ccccc2C3=O)cc1O (configuration not stated): 0.79
- O=C1C2=C(Nc3[nH]c(=O)[nH]c(=O)c3C2c2cccc(Br)c2)c2ccccc21 (configuration not stated): 1.42
- COc1cc(C2C3=C(Nc4[nH]c(=O)[nH]c(=O)c42)c2ccccc2C3=O)cc(Br)c1OC (configuration not stated): 0.69
- COc1cc(C2C3=C(Nc4[nH]c(=O)[nH]c(=O)c42)c2ccccc2C3=O)cc(OC)c1O (configuration not stated): 0.55
- COc1cc(C2C3=C(Nc4[nH]c(=O)[nH]c(=O)c42)c2ccccc2C3=O)cc(OC)c1OC (configuration not stated): 0.76
- COc1cc(C2C3=C(Nc4[nH]c(=O)[nH]c(=O)c42)c2ccccc2C3=O)ccc1O (configuration not stated): 0.74
- O=C1C2=C(Nc3[nH]c(=O)[nH]c(=O)c3C2c2ccc(O)c(O)c2)c2ccccc21 (configuration not stated): 0.7
- COc1ccc(-c2c3c(nc4[nH]c(=O)[nH]c(=O)c24)-c2ccccc2C3=O)cc1F: 0.44
